Cited source for all entries: the supplement of paper PMC11451515

Test system: NOMO1
test: cell viability relative to DMSO control; higher = less cytotoxic
conditions used: RPMI 5 mM glucose + 10% FBS; 48 h; 0.19 µM

[
  {
    "compound": "Cc1coc2c1C(=O)C(=O)c1c-2ccc2c(C)cccc12",
    "cell viability [%]": 128
  },
  {
    "compound": "S=C(NCc1ccc2c(c1)OCO2)N1CCN(c2ncnc3c2oc2ccccc23)CC1",
    "cell viability [%]": 111
  },
  {
    "compound": "CCOC(=O)N1CCN(/[N+]([O-])=N/Oc2ccc([N+](=O)[O-])cc2C#N)CC1",
    "cell viability [%]": 105
  },
  {
    "compound": "CCC[S+]([O-])c1ccc2[nH]c(NC(=O)OC)nc2c1 (centres undefined)",
    "cell viability [%]": 89.9
  },
  {
    "compound": "C[N]1C=C(C=N1)C2=C3\\C=N/NC(=O)C4=C3C(=CC(=C4)NC(=O)[C@H](N)C5CCCCC5)[NH]2",
    "cell viability [%]": 97.9
  },
  {
    "compound": "CN(C)[S+](=O)([O-])c1ccc2c(c1)C(=Cc1cc3c([nH]1)CCCC3)C(=O)N2",
    "cell viability [%]": 115
  },
  {
    "compound": "CCOC(=O)[C@@H](N)Cc1ccc(-c2cc(O[C@H](c3ccc(Cl)cc3-n3ccc(C)n3)C(F)(F)F)nc(N)n2)cc1.O=C(O)CNC(=O)c1ccccc1",
    "cell viability [%]": 90.3
  },
  {
    "compound": "CN[C@H]1CCC2=CC(=C(OC)C(=C2C/3=C/C=C(OC)\\C(=O)/C=C13)OC)OC",
    "cell viability [%]": 24.5
  },
  {
    "compound": "COCC1(CO)C(=O)C2CCN1CC2 (centres undefined)",
    "cell viability [%]": 104
  }
]

---

Tested on: P12-Ichikawa
test: cell viability relative to DMSO control; higher = less cytotoxic
conditions used: RPMI 5 mM glucose + 10% dialyzed FBS; 48 h; 0.569 µM
cell viability for assorted compounds

[
  {
    "compound": "Cc1onc(-c2ccccc2Cl)c1C(=O)N[C@@H]1C(=O)N2[C@@H]1SC(C)(C)[C@@H]2C(=O)[O-]",
    "u": "%",
    "cell viability": 120
  },
  {
    "compound": "Cc1nn(Cc2ccccc2Cl)c(C)c1CN(C)CC(O)COc1ccc(Cl)cc1 (stereo not drawn)",
    "u": "%",
    "cell viability": 94.9
  },
  {
    "compound": "COc1cc(OC2CCN(C)CC2)ccc1Nc1ncc2c(n1)n(C1CCCC1)c(=O)n2C",
    "u": "%",
    "cell viability": 86.5
  },
  {
    "compound": "CC(C)c1noc(N2CCC(COc3ccc(-c4ccc([S+](C)(=O)[O-])cc4)nc3)CC2)n1",
    "u": "%",
    "cell viability": 106
  },
  {
    "compound": "CC(C)(C)NC(=O)Nc1cccc(Nc2ncc(F)c(NC(C)(C)CO)n2)c1",
    "u": "%",
    "cell viability": 117
  },
  {
    "compound": "N#CCNC(=O)c1ccc(-c2ccnc(Nc3ccc(N4CCOCC4)cc3)n2)cc1",
    "u": "%",
    "cell viability": 99.5
  },
  {
    "compound": "CC1CNc2c(cccc2[S+](=O)([O-])N[C@@H](CCCNC(=N)N)C(=O)N2CC[C@@H](C)C[C@@H]2C(=O)O)C1 (stereo partly drawn)",
    "u": "%",
    "cell viability": 107
  },
  {
    "compound": "CC(C)(O)CC[C@@H](O)[C@](C)(O)[C@H]1CC[C@@]2(O)C/3=C/C(=O)[C@@H]4C[C@@H](O)[C@@H](O)C[C@]4(C)[C@H]3CC[C@]12C",
    "u": "%",
    "cell viability": 88.8
  }
]
